Parameter: pIC50. Scope: all listed entries.
# target: CK1δ (Homo sapiens, UniProt P48730)
# Sequence (P48730 whole entry): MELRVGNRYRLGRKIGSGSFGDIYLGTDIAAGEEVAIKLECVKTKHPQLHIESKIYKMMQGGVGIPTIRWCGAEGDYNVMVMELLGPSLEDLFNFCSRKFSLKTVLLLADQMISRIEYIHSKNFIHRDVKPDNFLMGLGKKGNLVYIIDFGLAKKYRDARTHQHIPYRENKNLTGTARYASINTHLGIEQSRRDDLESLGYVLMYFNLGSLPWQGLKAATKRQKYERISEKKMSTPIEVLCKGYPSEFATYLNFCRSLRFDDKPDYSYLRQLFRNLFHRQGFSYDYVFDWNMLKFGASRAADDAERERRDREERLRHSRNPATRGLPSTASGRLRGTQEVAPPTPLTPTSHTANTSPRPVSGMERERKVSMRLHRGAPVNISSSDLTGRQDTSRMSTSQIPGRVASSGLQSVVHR
# assayOverview: CK1δ kinase assay (Caliper LabChip electrophoretic separation of fluoresceinated peptide substrate and product)
# Assay type: biochemical
# reportedConditions: 200 pM CK1δ, 50 μM ATP, 1.5 μM peptide, 22 hours at room temperature; read-out: CK1δ IC50 range
pIC50: −log10 of the molar value.

Please fill in: pIC50 reported for N#Cc1ccc(C23CCC(NC(=O)N4CCn5nc(-c6ccc(F)c(Cl)c6)c(C(N)=O)c5C4)(CC2)CC3)cc1 = 8.00 to 11.00

Next:
Please fill in: pIC50 reported for NC(=O)c1c(-c2ccc(F)c(Cl)c2)nn2c1CN(C(=O)NC13CCCC(CCC1)C3)CC2 = 8.00 to 11.00

Please fill in: pIC50 reported for NC(=O)c1c(-c2ccc(F)c(Cl)c2)nn2c1CN(C(=O)NC1(c3cccnc3)CC(F)(F)C1)CC2 = 8.00 to 11.00

Please fill in: pIC50 reported for NC(=O)c1c(-c2cccc(Cl)c2)nn2c1CN(C(=O)NC1(c3cccnc3)CC(F)(F)C1)CC2 = 8.00 to 11.00

Please fill in: pIC50 reported for NC(=O)c1c(-c2cccc(F)c2)nn2c1CN(C(=O)NC13CC(C1)C3)CC2 = 7.00 to 8.00

Please fill in: pIC50 reported for NC(=O)c1c(-c2cccc(F)c2)nn2c1CN(C(=O)Nc1cc(F)ccc1F)CC2 = 7.00 to 8.00

###

# target: CK1ε (Homo sapiens)
# Sequence (P49674 whole entry): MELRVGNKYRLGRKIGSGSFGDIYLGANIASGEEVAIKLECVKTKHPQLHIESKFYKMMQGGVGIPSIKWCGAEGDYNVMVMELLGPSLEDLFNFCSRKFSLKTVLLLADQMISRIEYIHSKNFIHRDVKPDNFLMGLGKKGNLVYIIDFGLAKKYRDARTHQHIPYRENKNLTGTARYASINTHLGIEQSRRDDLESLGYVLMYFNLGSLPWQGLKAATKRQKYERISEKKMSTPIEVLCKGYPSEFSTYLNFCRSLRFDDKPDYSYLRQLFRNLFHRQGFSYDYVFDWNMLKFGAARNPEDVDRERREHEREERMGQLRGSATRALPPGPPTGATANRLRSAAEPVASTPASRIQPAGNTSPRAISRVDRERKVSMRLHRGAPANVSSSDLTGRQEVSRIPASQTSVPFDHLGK
# assayOverview: CK1ε kinase assay (Caliper LabChip electrophoretic separation of fluoresceinated peptide substrate and product)
# Type: biochemical
# reportedConditions: 200 pM CK1ε, 50 μM ATP, 1.5 μM peptide, 22 hours at room temperature; read-out: CK1ε IC50 range
pIC50: −log10 of the molar value.
observedProperty: pIC50

Worked examples follow.
Please fill in: pIC50 reported for NC(=O)c1c(-c2cccc(F)c2)nn2c1CN(C(=O)Nc1ccc(F)cc1F)CC2 [Compound 30] = 7.00 to 8.00

Please fill in: pIC50 reported for NC(=O)c1c(-c2cccc(F)c2)nn2c1CN(C(=O)NCCc1ccc(F)cc1)CC2 [Compound 42] = 5.70 to 7.00

Next:
Please fill in: pIC50 reported for NC(=O)c1c(-c2ccc(Cl)c(Cl)c2)nn2c1CN(C(=O)N[C@H]1C[C@H](F)C1)CC2 [Compound 202] = 8.00 to 11.00

Please fill in: pIC50 reported for C[C@H]1CN(C(=O)NC2CC(F)(F)C2)Cc2c(C(N)=O)c(-c3ccc(Cl)c(Cl)c3)nn21 [Compound A36] = 8.00 to 11.00

Please fill in: pIC50 reported for NC(=O)c1c(-c2cccc(Cl)c2)nn2c1CN(C(=O)N[C@H]1C[C@@H](OC(F)(F)F)C1)CC2 [Compound 262] = 8.00 to 11.00

###

# target: CK1δ (Homo sapiens)
# assayOverview: CK1δ kinase assay (Caliper LabChip electrophoretic separation of fluoresceinated peptide substrate and product)
# Type: biochemical
# reportedConditions: 200 pM CK1δ, 50 μM ATP, 1.5 μM peptide, 22 hours at room temperature; read-out: CK1δ IC50 range
Parameter: IC50. Scope: all listed entries.

Please fill in: IC50 reported for NC(=O)c1c(-c2cccc(F)c2)nn2c1CN(C(=O)Nc1cccc(F)c1F)CC2 = 10 to 100 nM

Please fill in: IC50 reported for NC(=O)c1c(-c2cccc(Cl)c2)nn2c1CN(C(=O)NC13CCC(c4ccccc4)(CC1)CC3)CC2 = 0.01 to 10 nM

Please fill in: IC50 reported for NC(=O)c1c(-c2cccc(Cl)c2)nn2c1CN(C(=O)NC1CC(C(F)F)C1)CC2 (centres unmarked) [Compound 256] = 0.01 to 10 nM

Next:
Please fill in: IC50 reported for CC(C)C1CN(C(=O)NC(C)(C)C)Cc2c(C(N)=O)c(-c3ccc(F)c(Cl)c3)nn21 (single isomer, unassigned) [Compound A120] = 0.01 to 10 nM

Please fill in: IC50 reported for CC(C)(O)[C@H]1CN(C(=O)NC2CC(F)(F)C2)Cc2c(C(N)=O)c(-c3ccc(F)c(Cl)c3)nn21 = 0.01 to 10 nM

Please fill in: IC50 reported for CC(C)(C)NC(=O)N1Cc2c(C(N)=O)c(-c3ccc(F)c(Cl)c3)nn2CC1C(F)(F)F (single isomer, unassigned) [Compound 346] = 100 to 2000 nM

Please fill in: IC50 reported for COC12CCC(NC(=O)N3CCn4nc(-c5cccc(Cl)c5)c(C(N)=O)c4C3)(CC1)CC2 = 0.01 to 10 nM

Please fill in: IC50 reported for CC1CC(NC(=O)N2CCn3nc(-c4ccc(Cl)c(Cl)c4)c(C(N)=O)c3C2)C1 (single isomer, unassigned) [Compound 248] = 0.01 to 10 nM
